Hello, the source for this data is ChEMBL document CHEMBL3425420, in case you need it.

target: Induced myeloid leukemia cell differentiation protein Mcl-1 (Homo sapiens); test: Displacement of FITC-Bak-BH3 peptide from Mcl-1 (unknown origin) incubated for 1.5 hrs by FPA competition assay
Sequence (Q07820 whole entry): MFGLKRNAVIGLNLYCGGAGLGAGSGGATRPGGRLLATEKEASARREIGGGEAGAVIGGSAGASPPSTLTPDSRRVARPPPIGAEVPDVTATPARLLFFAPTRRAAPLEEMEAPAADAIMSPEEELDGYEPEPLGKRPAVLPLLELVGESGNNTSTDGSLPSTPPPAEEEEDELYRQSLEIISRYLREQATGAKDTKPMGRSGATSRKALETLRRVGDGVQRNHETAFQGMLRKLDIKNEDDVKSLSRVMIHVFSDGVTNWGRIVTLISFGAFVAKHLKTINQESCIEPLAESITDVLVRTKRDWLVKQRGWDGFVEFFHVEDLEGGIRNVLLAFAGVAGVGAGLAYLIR
pKi: −log10 of the molar value.
Listed next: entries and their corresponding pKi.

molecule	censoring.sign	pKi
O=C(O)c1c(CCOc2cccc3ccccc23)c2cccc3c2n1CCC3	=	5.40
Cc1cc(OCCCc2c(C(=O)O)n3c4c(c(Cl)ccc24)CCC3)cc(C)c1Cl	=	8.52
O=C(O)c1c(CCCOc2cccc3ccccc23)c2cccc3c2n1CCCS3(=O)=O	=	7.21
O=C(O)c1cc2cccc3c2n1CCS3	=	4.29
O=C(O)c1c(CCOc2cccc3ccccc23)c2cccc3c2n1CCO3	=	5.80
Cc1cc(OCCCc2c(C(=O)O)n3c4c(cccc24)CCC3)cc(C)c1Cl	=	6.96
CC1Cn2c(C(=O)O)cc3cccc(c32)S1 (configuration not stated)	=	4.46
Cc1c(C(=O)O)n2c3c(cccc13)CCC2	=	4.05
O=C(O)c1cc2ccccc2[nH]1 [INDOLE-2-CARBOXYLIC ACID]	<	3.00
O=C(O)c1c(CCCOc2cccc3ccccc23)c2cccc3c2n1CCS3	=	6.92
O=C(O)c1c(CCCOc2cccc3ccccc23)c2cccc3c2n1CCO3	=	6.96
O=C(O)c1cc2cccc3c2n1CCC3	=	3.88
